- TESTED_SYSTEM: Lysine-specific demethylase 5B (Homo sapiens, UniProt Q9UGL1)
- Sequence (Q9UGL1 whole entry, the tested form may be a part): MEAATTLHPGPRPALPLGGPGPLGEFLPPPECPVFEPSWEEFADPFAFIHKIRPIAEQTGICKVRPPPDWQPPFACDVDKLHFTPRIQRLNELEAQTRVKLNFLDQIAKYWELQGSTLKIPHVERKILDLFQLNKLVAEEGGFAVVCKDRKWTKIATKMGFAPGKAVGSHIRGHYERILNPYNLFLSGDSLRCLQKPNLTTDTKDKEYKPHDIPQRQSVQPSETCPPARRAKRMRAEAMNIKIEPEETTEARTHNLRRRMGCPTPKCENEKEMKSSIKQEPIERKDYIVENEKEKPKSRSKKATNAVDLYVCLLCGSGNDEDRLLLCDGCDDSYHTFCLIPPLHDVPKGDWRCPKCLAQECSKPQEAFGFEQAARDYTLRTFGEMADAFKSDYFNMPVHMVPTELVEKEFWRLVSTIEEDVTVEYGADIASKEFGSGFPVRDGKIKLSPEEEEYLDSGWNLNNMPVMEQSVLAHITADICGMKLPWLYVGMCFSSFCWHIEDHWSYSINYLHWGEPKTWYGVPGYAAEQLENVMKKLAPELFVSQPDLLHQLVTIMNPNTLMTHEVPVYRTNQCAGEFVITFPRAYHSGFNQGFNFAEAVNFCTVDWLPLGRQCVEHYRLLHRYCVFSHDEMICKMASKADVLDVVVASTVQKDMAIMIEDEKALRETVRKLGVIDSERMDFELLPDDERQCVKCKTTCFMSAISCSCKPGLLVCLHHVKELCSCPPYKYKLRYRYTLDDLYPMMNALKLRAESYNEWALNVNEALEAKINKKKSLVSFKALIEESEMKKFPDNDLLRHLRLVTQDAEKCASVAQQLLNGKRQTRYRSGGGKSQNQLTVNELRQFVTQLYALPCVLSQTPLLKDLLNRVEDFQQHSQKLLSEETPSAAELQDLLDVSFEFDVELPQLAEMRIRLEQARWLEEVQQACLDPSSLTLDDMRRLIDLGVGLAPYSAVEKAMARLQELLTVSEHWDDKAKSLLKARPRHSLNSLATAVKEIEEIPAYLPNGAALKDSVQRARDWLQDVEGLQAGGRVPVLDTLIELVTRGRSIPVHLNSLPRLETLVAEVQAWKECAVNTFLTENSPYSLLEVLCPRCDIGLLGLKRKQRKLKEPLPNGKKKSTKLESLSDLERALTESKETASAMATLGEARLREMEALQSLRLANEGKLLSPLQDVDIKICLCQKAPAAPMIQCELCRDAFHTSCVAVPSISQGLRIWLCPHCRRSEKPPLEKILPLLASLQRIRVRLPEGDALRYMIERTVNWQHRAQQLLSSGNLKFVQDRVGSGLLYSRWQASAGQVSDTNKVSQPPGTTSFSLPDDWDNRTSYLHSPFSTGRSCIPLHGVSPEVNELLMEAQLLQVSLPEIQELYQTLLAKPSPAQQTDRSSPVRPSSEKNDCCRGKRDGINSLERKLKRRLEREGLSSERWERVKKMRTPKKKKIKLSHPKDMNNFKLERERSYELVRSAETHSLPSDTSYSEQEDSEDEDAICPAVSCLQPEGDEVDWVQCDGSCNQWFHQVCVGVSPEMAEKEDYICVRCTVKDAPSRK
- ASSAY_INFO: Inhibition of KDM5B (1 to 755 residues) (unknown origin)
READOUT_NAME: IC50 (µM)
Please reply with the bare figure in µM and do not write the unit itself.

Query: Give its IC50 value. Item: "Clc1ccc(N/N=C(\c2ccccc2)c2ccccn2)nc1"
Result: 5
